Reported IC50 values follow for various compounds
Target: PI3Kδ (p110δ/p85α) (Homo sapiens (Human), UniProt O00329)
Sequence (O00329 whole entry): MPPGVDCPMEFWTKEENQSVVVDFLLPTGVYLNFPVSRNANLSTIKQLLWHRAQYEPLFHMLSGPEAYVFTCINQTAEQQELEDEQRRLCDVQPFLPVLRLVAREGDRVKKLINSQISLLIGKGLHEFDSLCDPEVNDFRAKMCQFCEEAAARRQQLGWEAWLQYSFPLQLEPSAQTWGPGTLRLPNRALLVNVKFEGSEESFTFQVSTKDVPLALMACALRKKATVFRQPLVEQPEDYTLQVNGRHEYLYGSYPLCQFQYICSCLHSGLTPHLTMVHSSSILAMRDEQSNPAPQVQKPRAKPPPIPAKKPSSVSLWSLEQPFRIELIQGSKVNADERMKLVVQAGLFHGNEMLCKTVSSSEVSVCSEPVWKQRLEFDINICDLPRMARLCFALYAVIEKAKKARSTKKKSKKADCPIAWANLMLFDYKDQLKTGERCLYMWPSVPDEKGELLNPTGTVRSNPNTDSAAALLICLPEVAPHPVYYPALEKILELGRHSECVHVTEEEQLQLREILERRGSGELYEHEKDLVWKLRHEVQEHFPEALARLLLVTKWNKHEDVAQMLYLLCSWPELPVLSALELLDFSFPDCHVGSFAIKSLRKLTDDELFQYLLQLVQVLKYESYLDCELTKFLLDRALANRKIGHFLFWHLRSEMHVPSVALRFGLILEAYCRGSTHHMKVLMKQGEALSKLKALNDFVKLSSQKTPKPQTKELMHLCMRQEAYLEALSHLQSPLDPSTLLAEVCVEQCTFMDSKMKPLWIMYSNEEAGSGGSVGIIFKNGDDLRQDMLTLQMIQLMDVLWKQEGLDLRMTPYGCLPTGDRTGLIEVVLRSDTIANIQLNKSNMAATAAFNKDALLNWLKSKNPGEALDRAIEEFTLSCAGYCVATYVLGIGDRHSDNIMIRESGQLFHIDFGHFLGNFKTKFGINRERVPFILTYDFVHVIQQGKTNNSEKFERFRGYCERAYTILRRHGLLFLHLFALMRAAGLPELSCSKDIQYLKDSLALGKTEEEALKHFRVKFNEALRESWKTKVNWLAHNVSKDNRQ
Sequence (P27986 whole entry partner): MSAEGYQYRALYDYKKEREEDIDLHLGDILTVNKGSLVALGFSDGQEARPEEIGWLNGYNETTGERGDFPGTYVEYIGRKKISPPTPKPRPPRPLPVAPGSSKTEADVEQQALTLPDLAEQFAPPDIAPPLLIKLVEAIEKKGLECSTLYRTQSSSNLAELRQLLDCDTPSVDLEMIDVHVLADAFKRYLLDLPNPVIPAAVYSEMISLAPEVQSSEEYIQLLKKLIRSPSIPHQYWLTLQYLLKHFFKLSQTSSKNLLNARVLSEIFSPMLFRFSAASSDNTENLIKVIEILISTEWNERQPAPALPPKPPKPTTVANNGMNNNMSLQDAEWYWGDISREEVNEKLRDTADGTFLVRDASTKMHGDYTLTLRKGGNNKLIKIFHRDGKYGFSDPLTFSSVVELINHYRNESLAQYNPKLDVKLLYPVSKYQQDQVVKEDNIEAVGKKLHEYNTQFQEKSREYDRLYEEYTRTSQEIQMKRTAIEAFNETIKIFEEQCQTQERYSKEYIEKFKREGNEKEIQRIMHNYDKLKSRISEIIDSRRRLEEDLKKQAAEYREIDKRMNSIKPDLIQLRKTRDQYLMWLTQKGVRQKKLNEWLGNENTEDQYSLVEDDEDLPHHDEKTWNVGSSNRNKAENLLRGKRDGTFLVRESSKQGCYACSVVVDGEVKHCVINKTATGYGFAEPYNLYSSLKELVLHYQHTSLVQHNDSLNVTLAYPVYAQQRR
Experiment: cell-free PI3K HTRF assay, PI3Kδ
Conditions: 10-dose IC50 mode, 3-fold serial dilution starting at 1 μM; ATP 10 μM; read-out: IC50 value for the inhibition of PI3Kδ
Give the value, in units of nM, as a plain number.

> print(dat)
                                   compound  measured.result
1  Fc1ccc2cc(C3CCCN3c3ncnc4[nH]cnc34)c(-c3cccc(OC(F)(F)F)c3)nc2c1 (centres unmarked)              207
2  Cc1cccc2cc([C@@H]3CCCN3c3ncnc4[nH]cnc34)c(-c3ccccc3)nc12               18

Prompt: What IC50 value was documented for this compound, N#Cc1c(N)ncnc1N1CCCC1c1cc2ccc(F)cc2nc1N1CCOCC1 (centres unmarked) ?
Response: 1.6

Prompt: Same again, this time with Fc1ccc2cc(C3CCCCN3c3ncnc4[nH]cnc34)c(-c3ccccc3)nc2c1 (centres unmarked)
Response: 240

Prompt: Try this compound next: COc1cccc(-c2nc3cc(F)ccc3cc2C2CCCN2c2ncnc3[nH]cnc23)c1 (centres unmarked)
Response: 11

Prompt: Now give it for Fc1ccc2cc(C3CC=CCN3c3ncnc4[nH]cnc34)c(-c3ccccc3)nc2c1 (centres unmarked) too.
Response: 103

Prompt: Same question for N#Cc1c(N)ncnc1N1CCCC1c1cc2ccc(F)cc2nc1-c1ccncc1 (centres unmarked) please.
Response: 62

Prompt: Follow-up item: Fc1ccc2cc(C3CCCN3c3ncnc4[nH]cnc34)c(N3CCOCC3)nc2c1 (centres unmarked)
Response: 19

Prompt: Quick one: Fc1cccc(-c2nc3cc(F)ccc3cc2C2CCCN2c2ncnc3[nH]cnc23)c1 (centres unmarked)
Response: 0.5

Prompt: And what about the compound N#Cc1c(N)ncnc1N1CC=CCC1c1cc2ccc(F)cc2nc1N1CCOCC1 (centres unmarked) ?
Response: 6.2

Prompt: Item: Fc1ccc2cc(C3CCCN3c3ncnc4[nH]cnc34)c(N3CCCCC3)nc2c1 (centres unmarked)
Response: 2.2

Prompt: Check Fc1ccc2cc(C3CCCCN3c3ncnc4[nH]cnc34)c(N3CCOCC3)nc2c1 (centres unmarked) too.
Response: 7.1

Prompt: Next entry: Fc1ccc2cc(C3CCCN3c3ncnc4[nH]cnc34)c(-c3ccccc3)nc2c1 (centres unmarked)
Response: 0.7

Prompt: // repeat for Fc1ccc2cc(C3CCCN3c3ncnc4[nH]cnc34)c(-c3cccnc3)nc2c1 (centres unmarked) and report
Response: 27

Prompt: Input Cc1cccc2cc([C@@H]3CCCN3c3ncnc4[nH]cnc34)c(N3CCOCC3)nc12
Response: 1.6

---

Molecular target: PI3Kβ (p110β/p85α) (Homo sapiens (Human), UniProt P42338)
Sequence (P42338 whole entry): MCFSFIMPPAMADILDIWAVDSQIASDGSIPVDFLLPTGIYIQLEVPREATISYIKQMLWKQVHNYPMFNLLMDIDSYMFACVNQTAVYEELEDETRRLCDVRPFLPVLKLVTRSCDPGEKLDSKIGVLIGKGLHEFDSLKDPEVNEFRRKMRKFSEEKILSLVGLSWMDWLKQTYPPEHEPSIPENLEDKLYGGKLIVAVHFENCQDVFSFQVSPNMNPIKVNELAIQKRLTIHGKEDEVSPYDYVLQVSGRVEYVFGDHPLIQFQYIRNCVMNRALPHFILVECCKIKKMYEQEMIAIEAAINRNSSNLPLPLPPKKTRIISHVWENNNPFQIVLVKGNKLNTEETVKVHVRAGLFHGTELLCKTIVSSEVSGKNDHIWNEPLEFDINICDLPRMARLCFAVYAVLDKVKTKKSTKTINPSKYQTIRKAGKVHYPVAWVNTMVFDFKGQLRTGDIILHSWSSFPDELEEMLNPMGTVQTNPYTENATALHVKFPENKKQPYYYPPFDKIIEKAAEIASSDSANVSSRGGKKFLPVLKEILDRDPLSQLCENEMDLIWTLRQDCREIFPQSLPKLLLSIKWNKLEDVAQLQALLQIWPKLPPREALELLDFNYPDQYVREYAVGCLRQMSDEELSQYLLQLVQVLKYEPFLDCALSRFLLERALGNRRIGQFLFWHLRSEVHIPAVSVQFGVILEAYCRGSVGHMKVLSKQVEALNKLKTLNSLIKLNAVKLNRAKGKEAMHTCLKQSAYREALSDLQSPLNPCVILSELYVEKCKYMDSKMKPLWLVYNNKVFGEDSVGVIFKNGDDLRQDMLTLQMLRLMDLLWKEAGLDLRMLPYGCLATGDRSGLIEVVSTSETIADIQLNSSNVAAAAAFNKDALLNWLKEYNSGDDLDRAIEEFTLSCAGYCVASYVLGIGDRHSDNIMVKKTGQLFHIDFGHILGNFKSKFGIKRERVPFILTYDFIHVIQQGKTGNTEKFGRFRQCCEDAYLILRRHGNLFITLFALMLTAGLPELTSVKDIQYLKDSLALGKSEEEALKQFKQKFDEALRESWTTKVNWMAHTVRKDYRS
Sequence (P27986 whole entry partner): as the sequence (P27986 whole entry partner) above
Experiment: cell-free PI3K HTRF assay, PI3Kβ
Format: biochemical
Conditions: ratio of IC50 against PI3Kβ related to PI3Kδ; 10-dose, 3-fold serial dilution starting at 10 μM
Reported property: Ratio (β/δ)
API doc: respond with a numeric literal and nothing else, no unit.

Please review the entries below; each comes with its answer.
> print(dat)
                                   compound  measured.result
1  N#Cc1c(N)ncnc1N1CC=CCC1c1cc2ccc(F)cc2nc1N1CCOCC1 (stereo not shown)              297
2  N#Cc1c(N)ncnc1N1CCCC1c1cc2ccc(F)cc2nc1-c1ccccc1 (stereo not shown)              478
3  Fc1ccc2cc(C3CCCN3c3ncnc4[nH]cnc34)c(-c3cccnc3)nc2c1 (stereo not shown)              267

Let's switch to this compound now.
Prompt: For the compound shown here, Fc1cccc(-c2nc3cc(F)ccc3cc2C2CCCN2c2ncnc3[nH]cnc23)c1 (stereo not shown) , give the reported Ratio (β/δ).
Response: 8946

---

Biological target: PI3Kγ (p110γ) (Homo sapiens (Human), UniProt P48736)
Assay: cell-free PI3K HTRF assay, PI3Kγ
Type: biochemical
Conditions: ratio of IC50 against PI3Kγ related to PI3Kδ; 10-dose, 3-fold serial dilution starting at 10 μM
Recorded Ratio (γ/δ) values for a group of compounds are listed next.

> print(dat)
                                   compound  measured.result
1  N#Cc1c(N)ncnc1N1CCC[C@H]1c1cc2cccc(Cl)c2nc1-c1ccccc1             >5.6

Prompt: Given the compound Nc1nc(N2CCCC2c2cc3ccc(F)cc3nc2N2CCCCC2)c2nc[nH]c2n1 (stereo not shown) , what is its reported Ratio (γ/δ)?
Response: 1.1

Prompt: Here is the next compound: Fc1ccc2cc(C3CCCN3c3ncnc4[nH]cnc34)c(-c3ccccc3)nc2c1 (stereo not shown)
Response: 67.5

Prompt: What would you report for N#Cc1c(N)ncnc1N1CCCC1c1cc2ccc(F)cc2nc1-c1ccccc1 (stereo not shown) ?
Response: 52.4

Prompt: Moving on to Cc1cccc2cc([C@@H]3CCCN3c3nc(N)nc(N)c3C#N)c(-c3ccccc3)nc12
Response: ~10

Prompt: Cool, now Fc1ccc2cc(C3CCCN3c3ncnc4[nH]cnc34)c(-c3ccccc3F)nc2c1 (stereo not shown)
Response: 22

Prompt: Next record, please: N#Cc1c(N)nc(N)nc1N1CCCC1c1cc2ccc(F)cc2nc1-c1ccccc1 (stereo not shown)
Response: >2.3

Prompt: Moving on to the next compound: N#Cc1c(N)ncnc1N1CCC[C@H]1c1cc2cccc(Cl)c2nc1N1CCOCC1
Response: >31

Prompt: Ok, now N#Cc1c(N)ncnc1N1CCCC1c1cc2ccc(F)cc2nc1-c1ccncc1 (stereo not shown)
Response: 2.2

---

Molecular target: PI3Kδ (p110δ/p85α) (Homo sapiens (Human))
Experiment: cell-free PI3K HTRF assay, PI3Kδ
Details: 10-dose IC50 mode, 3-fold serial dilution starting at 1 μM; ATP 10 μM; read-out: IC50 value for the inhibition of PI3Kδ
Overview of reported IC50 across a group of compounds:
// return numeric value only (unit: nM, not printed)

> print(dat)
                                   compound  measured.result
1  COc1cccc(-c2nc3cc(F)ccc3cc2C2CCCN2c2ncnc(N)c2C#N)c1 (centres unmarked) [Compound 30]              4.8
2  Fc1ccc2cc(C3CCCN3c3ncnc4[nH]cnc34)c(-c3ccccc3F)nc2c1 (centres unmarked) [Compound 24]               16
3  Fc1ccc2cc(C3CCCN3c3ncnc4[nH]cnc34)c(-c3ccccn3)nc2c1 (centres unmarked) [Compound 10]               13

Note: attention shifts to another entry.
Prompt: Give the measured IC50 of Fc1ccc2cc(C3CC=CCN3c3ncnc4[nH]cnc34)c(N3CCOCC3)nc2c1 (centres unmarked) [Compound 43] .
Response: 6.8

---

Target: PI3Kβ (p110β/p85α) (Homo sapiens (Human), UniProt P42338)
Assay: cell-free PI3K HTRF assay, PI3Kβ
Format: biochemical
Settings: ratio of IC50 against PI3Kβ related to PI3Kδ; 10-dose, 3-fold serial dilution starting at 10 μM
The compounds listed here are annotated with their Ratio (β/δ).

Example compounds with recorded Ratio (β/δ):
> print(dat)
                                   compound  reported.property  measured.result
1  Fc1ccc2cc([C@@H]3CCCN3c3ncnc4[nH]cnc34)c(-c3ccccn3)nc2c1        Ratio (β/δ)              520
2  Fc1ccc2cc(C3CCCN3c3ncnc4[nH]cnc34)c(-c3ccccc3)nc2c1 (stereo not shown)        Ratio (β/δ)             3550
3  Fc1ccc2cc(C3CC=CCN3c3ncnc4[nH]cnc34)c(N3CCOCC3)nc2c1 (stereo not shown)        Ratio (β/δ)              169

With those in mind, consider the next compound.
Prompt: Data request, read-out Ratio (β/δ), for N#Cc1c(N)ncnc1N1CCC[C@H]1c1cc2cccc(Cl)c2nc1N1CCOCC1
Response: >111

---

Target: PI3Kα (p110α/p85α) (Homo sapiens (Human), UniProt P42336)
Sequence (P42336 whole entry): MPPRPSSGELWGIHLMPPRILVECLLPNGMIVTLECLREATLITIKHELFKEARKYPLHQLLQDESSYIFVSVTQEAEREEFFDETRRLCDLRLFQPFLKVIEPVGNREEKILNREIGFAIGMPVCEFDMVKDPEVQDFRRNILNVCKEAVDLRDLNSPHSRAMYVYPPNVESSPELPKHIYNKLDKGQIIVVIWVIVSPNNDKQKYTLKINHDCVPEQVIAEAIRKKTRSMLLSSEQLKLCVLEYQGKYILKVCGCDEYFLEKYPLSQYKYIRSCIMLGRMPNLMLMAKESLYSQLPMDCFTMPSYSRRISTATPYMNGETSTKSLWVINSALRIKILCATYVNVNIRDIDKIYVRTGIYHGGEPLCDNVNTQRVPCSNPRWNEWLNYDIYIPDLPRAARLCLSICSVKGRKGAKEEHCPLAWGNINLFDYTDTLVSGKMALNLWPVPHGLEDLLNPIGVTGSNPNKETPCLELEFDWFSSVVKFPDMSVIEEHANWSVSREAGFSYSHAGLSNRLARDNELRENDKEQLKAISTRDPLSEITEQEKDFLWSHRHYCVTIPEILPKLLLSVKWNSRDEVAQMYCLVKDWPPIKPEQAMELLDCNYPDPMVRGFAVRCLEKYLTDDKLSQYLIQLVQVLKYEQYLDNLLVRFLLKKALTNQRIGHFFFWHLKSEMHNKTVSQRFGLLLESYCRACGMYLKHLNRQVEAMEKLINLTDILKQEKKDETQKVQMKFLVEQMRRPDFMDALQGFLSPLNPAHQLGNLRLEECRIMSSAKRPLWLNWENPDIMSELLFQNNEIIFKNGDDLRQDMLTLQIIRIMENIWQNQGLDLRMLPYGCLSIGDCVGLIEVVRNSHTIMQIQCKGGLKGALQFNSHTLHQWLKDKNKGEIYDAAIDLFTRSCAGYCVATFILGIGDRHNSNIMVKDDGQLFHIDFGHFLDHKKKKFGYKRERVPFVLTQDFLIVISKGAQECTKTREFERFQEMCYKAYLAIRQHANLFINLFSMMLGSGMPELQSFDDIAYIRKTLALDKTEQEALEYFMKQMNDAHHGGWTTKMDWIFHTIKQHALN
Sequence (P27986 whole entry partner): as the sequence (P27986 whole entry partner) above
Test: cell-free PI3K HTRF assay, PI3Kα
Format: biochemical
Settings: ratio of IC50 against PI3Kα related to PI3Kδ; 10-dose, 3-fold serial dilution starting at 10 μM
Reported property: Ratio (α/δ)
API doc: respond with a numeric literal and nothing else, no unit.

> print(dat)
                                   compound                       experimental.system  reported.property  measured.result
1  Fc1ccc2cc(C3CCCN3c3ncnc4[nH]cnc34)c(-c3ccccc3)nc2c1 (stereo not drawn) [Compound 21]  PI3Kα (p110α/p85α) (Homo sapiens (Human), UniProt P42336)        Ratio (α/δ)            12818

Then this compound:
Prompt: Need Ratio (α/δ) of Fc1cccc(-c2nc3cc(F)ccc3cc2C2CCCN2c2ncnc3[nH]cnc23)c1 (stereo not drawn) [Compound 22] , thanks.
Response: 16451
